Target: T1, recombinant LILRB2 ECD (human, UniProt Q8N423 22-460)
T1 construct: also called biotinylated LILRB2 ECD
T1 sequence (Q8N423 22-460 limits assumed): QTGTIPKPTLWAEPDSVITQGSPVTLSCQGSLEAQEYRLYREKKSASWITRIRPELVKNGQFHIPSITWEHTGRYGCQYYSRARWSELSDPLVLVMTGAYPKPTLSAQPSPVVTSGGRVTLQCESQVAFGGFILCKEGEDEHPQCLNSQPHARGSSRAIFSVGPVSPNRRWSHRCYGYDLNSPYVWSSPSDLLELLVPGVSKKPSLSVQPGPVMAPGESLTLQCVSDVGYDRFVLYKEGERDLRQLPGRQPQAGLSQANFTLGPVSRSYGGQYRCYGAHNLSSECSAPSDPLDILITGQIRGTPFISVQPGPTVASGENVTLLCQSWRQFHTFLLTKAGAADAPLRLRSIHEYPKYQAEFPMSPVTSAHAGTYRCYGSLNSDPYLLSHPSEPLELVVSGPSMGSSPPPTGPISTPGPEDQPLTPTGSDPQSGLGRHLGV
Experiment: BLI, IgG on AHC sensor, ECD in solution
Under this convention, YES denotes Kd strictly below 3 nM and NO denotes Kd at or above 3 nM.

binder | class_assignment
A-027 (antibody, V domains shown, tested as IgG) VH: QVQLVQSGAEVKKPGSSVKVSCKASGGSFTGYAISWVRQAPGQGLEWMGGILPSFYTAVYAQKFQGRVTITADESTSTAYMELSSLRSEDTAVYYCAKGPPVGSSSWYTDWYFDLWGRGTLVTVSS VL: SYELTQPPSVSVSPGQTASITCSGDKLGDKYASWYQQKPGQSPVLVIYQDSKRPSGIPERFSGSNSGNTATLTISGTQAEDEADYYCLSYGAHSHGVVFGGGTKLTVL | YES
A-045 (antibody, V domains shown, tested as IgG; HC of A-010 and LC of A-036) VH: QVQLVQSGAEVKKPGSSVKVSCKASGGTFQSQAFAWVRQAPGQGLEWMGSIIPGFSTANYAQKFQGRVTITADESTSTAYMELSSLRSEDTAVYYCAKDLGTYSSGWPYYYGMDVWGQGTTVTVSS VL: SYELTQPPSVSVSPGQTASITCSGDKLGDKYASWYQQKPGQSPVLVIYQDSKRPSGIPERFSGSNSGNTATLTISGTQAEDEADYYCQLTHLTIYVFGGGTKLTVL | YES
A-005 (antibody, V domains shown, tested as IgG) VH: QVQLVQSGAEVKKPGSSVKVSCKASGGTFTIYAINWVRQAPGQGLEWMGGIIPGFHSANYAQKFQGRVTITADESTSTAYMELSSLRSEDTAVYYCAKDLGTYSSGWPYYYGMDVWGQGTTVTVSS VL: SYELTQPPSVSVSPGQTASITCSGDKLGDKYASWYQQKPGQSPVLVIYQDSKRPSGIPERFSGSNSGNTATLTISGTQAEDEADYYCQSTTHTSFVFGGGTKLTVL | NO
A-039 (antibody, V domains shown, tested as IgG) VH: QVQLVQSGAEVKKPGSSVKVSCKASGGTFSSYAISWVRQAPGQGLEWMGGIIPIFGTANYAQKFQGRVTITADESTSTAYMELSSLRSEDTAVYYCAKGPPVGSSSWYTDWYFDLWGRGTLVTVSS VL: SYELTQPPSVSVSPGQTASITCSGDKLGDKYASWYQQKPGQSPVLVIYQDSKRPSGIPERFSGSNSGNTATLTISGTQAEDEADYYCALYGGGHTVVFGGGTKLTVL | NO
A-011 (antibody, V domains shown, tested as IgG) VH: QVQLVQSGAEVKKPGSSVKVSCKASGGSFSHSAFSWVRQAPGQGLEWMGSIIPAFYTANYAQKFQGRVTITADESTSTAYMELSSLRSEDTAVYYCAKDLGTYSSGWPYYYGMDVWGQGTTVTVSS VL: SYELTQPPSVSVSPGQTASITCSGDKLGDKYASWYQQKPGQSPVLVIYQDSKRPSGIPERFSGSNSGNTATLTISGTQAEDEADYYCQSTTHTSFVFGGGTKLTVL | NO
A-047 (antibody, V domains shown, tested as IgG) VH: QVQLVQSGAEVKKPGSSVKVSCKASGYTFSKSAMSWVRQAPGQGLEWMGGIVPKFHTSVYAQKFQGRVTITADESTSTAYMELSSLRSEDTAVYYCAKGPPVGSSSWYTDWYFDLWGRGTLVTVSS VL: SYELTQPPSVSVSPGQTASITCSGDKLGDKYASWYQQKPGQSPVLVIYQDSKRPSGIPERFSGSNSGNTATLTISGTQAEDEADYYCSLYGAGHTVVFGGGTKLTVL | YES
A-020 (antibody, V domains shown, tested as IgG) VH: QVQLVQSGAEVKKPGSSVKVSCKASGGTFQTYAISWVRQAPGQGLEWMGSIIPKFYQSNYAYKFQGRVTITADESTSTAYMELSSLRSEDTAVYYCAKDLGTYSSGWPYYYGMDVWGQGTTVTVSS VL: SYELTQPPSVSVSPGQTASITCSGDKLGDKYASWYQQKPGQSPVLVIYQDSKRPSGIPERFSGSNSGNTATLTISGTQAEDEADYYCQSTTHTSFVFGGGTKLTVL | YES
A-048 (antibody, V domains shown, tested as IgG) VH: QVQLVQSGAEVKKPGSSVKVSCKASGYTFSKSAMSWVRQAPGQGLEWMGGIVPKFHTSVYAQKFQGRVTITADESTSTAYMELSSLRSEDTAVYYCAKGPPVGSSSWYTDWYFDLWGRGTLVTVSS VL: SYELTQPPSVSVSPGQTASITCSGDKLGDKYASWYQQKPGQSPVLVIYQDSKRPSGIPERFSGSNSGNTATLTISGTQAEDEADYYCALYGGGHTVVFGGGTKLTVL | NO
A-032 (antibody, V domains shown, tested as IgG) VH: QVQLVQSGAEVKKPGSSVKVSCKASGGTFQSYAFSWVRQAPGQGLEWMGGIVPQYSTAVYAQKFQGRVTITADESTSTAYMELSSLRSEDTAVYYCAKGPPVGSSSWYTDWYFDLWGRGTLVTVSS VL: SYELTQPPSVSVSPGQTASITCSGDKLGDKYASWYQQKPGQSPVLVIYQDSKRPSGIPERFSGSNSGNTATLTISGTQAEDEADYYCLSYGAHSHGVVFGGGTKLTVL | YES
A-009 (antibody, V domains shown, tested as IgG) VH: QVQLVQSGAEVKKPGSSVKVSCKASGGTFSVTAILWVRQAPGQGLEWMGGIIPSFTSANYASKFQGRVTITADESTSTAYMELSSLRSEDTAVYYCAKDLGTYSSGWPYYYGMDVWGQGTTVTVSS VL: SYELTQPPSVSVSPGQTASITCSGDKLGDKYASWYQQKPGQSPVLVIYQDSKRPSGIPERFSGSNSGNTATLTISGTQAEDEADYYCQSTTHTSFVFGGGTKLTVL | NO
